# test.system: Thrombopoietin receptor (Homo sapiens, UniProt P40238)
# Sequence (P40238 whole entry): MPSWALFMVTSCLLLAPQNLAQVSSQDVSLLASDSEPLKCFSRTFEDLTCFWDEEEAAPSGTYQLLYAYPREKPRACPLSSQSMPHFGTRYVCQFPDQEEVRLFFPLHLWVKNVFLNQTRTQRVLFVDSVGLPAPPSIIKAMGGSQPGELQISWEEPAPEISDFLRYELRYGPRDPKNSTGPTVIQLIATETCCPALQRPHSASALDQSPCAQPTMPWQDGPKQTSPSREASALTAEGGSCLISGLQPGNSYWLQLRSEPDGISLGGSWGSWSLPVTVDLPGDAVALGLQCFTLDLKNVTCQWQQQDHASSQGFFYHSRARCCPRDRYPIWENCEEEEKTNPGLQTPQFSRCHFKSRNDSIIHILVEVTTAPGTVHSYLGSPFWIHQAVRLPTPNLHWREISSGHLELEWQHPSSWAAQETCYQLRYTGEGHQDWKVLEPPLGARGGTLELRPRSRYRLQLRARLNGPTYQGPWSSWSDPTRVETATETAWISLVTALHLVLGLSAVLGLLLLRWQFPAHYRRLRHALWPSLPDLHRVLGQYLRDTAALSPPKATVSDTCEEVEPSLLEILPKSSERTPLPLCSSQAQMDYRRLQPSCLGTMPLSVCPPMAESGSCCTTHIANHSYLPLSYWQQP
# experimental.details: Agonist activity at human thrombopoietin receptor expressed in mouse Ba/F3 cells by kinase activation based reporter gene assay
pEC50: −log10 of the molar value.
test.readout: pEC50

molecule: CCCCc1ccc(-c2ccc3c4c([nH]c3c2F)-c2ccc(C(=O)O)cc2C4)cc1
pEC50: 7.43

1. Cc1cc(-c2ccc3c4c([nH]c3c2F)-c2ccc(C(=O)O)cc2C4)ccc1F
2. Cc1cc(-c2ccc3c4c([nH]c3c2F)-c2ccc(C(N)=O)cc2OC4)ccc1F
Exercise: Pick the one with the larger pEC50: 1 vs 2 Indicate which entry you chose by stating its label.
Key: 1
(1: 7.59, 2: 5.84)

1. CCCCc1ccc(-c2ccc3c4c([nH]c3c2F)-c2ccc(C(=O)O)cc2C4(C)C)cc1
2. Cc1cc(-c2ccc3c4c([nH]c3c2F)-c2ccc(C(N)=O)cc2C4)ccc1F
3. CCCCc1ccc(-c2ccc3cc(-c4ccc(C(=O)O)c(O)c4)[nH]c3c2F)cc1
Exercise: Order the records by pEC50, with each subsequent value no larger than the one before. Ranked list of labels, please, in the requested order.
Key: 3, 1, 2

P. CCCCc1ccc(-c2ccc3cc(-c4ccc(C(N)=O)cc4)[nH]c3c2F)cc1
Q. CCCCc1ccc(-c2ccc3c4c([nH]c3c2F)-c2cc(NC(C)=O)c(C(=O)O)cc2C4)cc1
R. CCCCc1ccc(-c2ccc3c4c([nH]c3c2)-c2ccc(C(N)=O)cc2C4)cc1
S. CCCCc1ccc(-c2ccc3c4c([nH]c3c2F)-c2ccc(NC(=O)C(=O)O)cc2C4)cc1
Exercise: Hey, can you sort those molecules up there by pEC50, smallest first? Ranked list of labels, please, in the requested order.
Key: Q, P, R, S
(Q: 6.42, P: 6.80, R: 7.07, S: 7.68)

P. CCCCc1ccc(-c2ccc3nc(-c4ccc(C(=O)O)c(O)c4)[nH]c3c2)cc1
Q. CCCCc1ccc(-c2ccc3c4c([nH]c3c2)-c2ccc(C(=O)O)cc2CC4)cc1
Exercise: Pick the one with the larger pEC50: P vs Q Indicate which entry you chose by stating its label.
Key: Q
